# Study system: cloned human H3 receptors (Homo sapiens, UniProt Q9Y5N1)
# Construct: expressed in transfected cells
# Sequence (Q9Y5N1 whole entry): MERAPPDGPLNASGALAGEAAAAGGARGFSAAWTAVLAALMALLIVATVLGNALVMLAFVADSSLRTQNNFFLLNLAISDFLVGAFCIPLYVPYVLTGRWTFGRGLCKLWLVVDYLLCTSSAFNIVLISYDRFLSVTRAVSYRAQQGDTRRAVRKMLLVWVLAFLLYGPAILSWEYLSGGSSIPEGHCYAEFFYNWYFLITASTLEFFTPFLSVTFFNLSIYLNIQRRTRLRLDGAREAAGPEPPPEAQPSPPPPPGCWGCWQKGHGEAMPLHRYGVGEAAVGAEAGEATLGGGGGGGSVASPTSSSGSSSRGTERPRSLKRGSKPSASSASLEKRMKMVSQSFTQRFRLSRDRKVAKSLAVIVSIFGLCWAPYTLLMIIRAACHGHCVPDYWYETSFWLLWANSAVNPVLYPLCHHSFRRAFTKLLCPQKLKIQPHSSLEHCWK
# Method summary: H3 Receptor Binding (Human)
# Assay setup: cloned human H3 receptors stably expressed in SK-N-MC cells; average of the results obtained; read-out: Human H3 Ki
Where a name gives a salt, the structure may show the parent alone.
Reported pKi values for a set of compounds
Please treat pKi as minus the base-10 logarithm of the molar concentration.

// worked examples, pKi included
CC(C)CN1CCN(C(=O)c2ccc(Oc3ccc(F)cc3)nc2)CC1 : 7.24
O=C(c1ccc(Oc2ccc(F)cc2)cn1)N1CCCN(C2CCC2)CC1 [Example 69, trifluoroacetic acid salt] : 8.70
O=C(c1ccc(Oc2ccc(F)cc2)nc1)N1CCCN(C2CCCC2)CC1 : 8.70
O=C(c1ccc(Oc2cc(Cl)cc(Cl)c2)nc1)N1CCCN(C2CC2)CC1 : 8.52
O=C(c1ccc(Oc2ccc(Cl)c(Cl)c2)nc1)N1CCCN(C2CCC2)CC1 : 8.70
CC(C)N1CCN(C(=O)c2ccc(Oc3ccc(Cl)c(Cl)c3)c(CN)n2)CC1 [Example 64, trifluoroacetic acid salt] : 6.78
CC(C)N1CCN(C(=O)c2ccc(Oc3ccc(F)cc3)nc2)CC1 : 7.55

// next item, pKi requested
stdin: Find the measured pKi of O=C(c1ccc(Oc2ccc(F)cc2)nc1)N1CCCN(C2CC2)CC1 and report it.
stdout: 8.70

---

# Study system: cloned human H3 receptors (Homo sapiens)
# Construct: expressed in transfected cells
# Method summary: H3 Receptor Binding (Human)
# Assay setup: cloned human H3 receptors stably expressed in SK-N-MC cells; average of the results obtained; read-out: Human H3 Ki
Structures can show the parent of a compound that is named as a salt.
Measured endpoint: Ki
Answer with the figure and its unit, nothing else.

Cc1cc(Oc2cccc(C(=O)N3CCCN(C4CC4)CC3)n2)ccc1Cl [Example 47, trifluoroacetic acid salt] : 357 nM
O=C(c1ccc(Oc2ccc(Cl)c(Cl)c2)cn1)N1CCCN(C2CC2)CC1 [Example 52, trifluoroacetic acid salt] : 4 nM
Cc1ccccc1Oc1ccc(C(=O)N2CCCN(C3CCC3)CC2)cn1 [Example 102] : 1 nM
O=C(c1ccc(Oc2ccc(Cl)c(Cl)c2)nc1)N1CCCN(C2CCCC2)CC1 [Example 66] : 1 nM
O=C(c1ccc(Oc2ccc(Cl)cc2)nc1)N1CCN(C2CCCC2)CC1 [Example 77] : 22 nM

stdin: Find the measured Ki of O=C(c1ccc(Oc2ccc(F)cc2F)nc1)N1CCCN(C2CC2)CC1 [Example 32] and report it.
stdout: 4 nM

stdin: Find the measured Ki of O=C(c1ccc(Oc2cccc(F)c2)nc1)N1CCCN(C2CCC2)CC1 [Example 39] and report it.
stdout: 1 nM

stdin: Find the measured Ki of O=C(c1ccc(Sc2ccc(F)cc2)cn1)N1CCCN(C2CCC2)CC1 [Example 84, trifluoroacetic acid salt] and report it.
stdout: 2 nM

stdin: Find the measured Ki of Cc1cc(Oc2ccc(C(=O)N3CCN(C(C)C)CC3)cn2)ccc1Cl [Example 6] and report it.
stdout: 32 nM

stdin: Find the measured Ki of O=C(c1ccc(Oc2ccc(F)cc2F)nc1)N1CCCN(C2CCC2)CC1 [Example 30] and report it.
stdout: 1 nM

---

Reported Ki values for a set of compounds
# Study system: cloned human H3 receptors (Homo sapiens, UniProt Q9Y5N1)
# Construct: expressed in transfected cells
# Method summary: H3 Receptor Binding (Human)
# Assay setup: cloned human H3 receptors stably expressed in SK-N-MC cells; average of the results obtained; read-out: Human H3 Ki
Where a name gives a salt, the structure may show the parent alone.
Hi! Could you send only the number? It should be in nM, unit omitted.

O=C(c1ccc(Oc2ccc(F)c(F)c2)nc1)N1CCCN(C2CC2)CC1 : 4
O=C(c1ccc(Sc2ccccc2)nc1)N1CCCN(C2CCC2)CC1 : 1
CC(C)N1CCCN(C(=O)c2cccc(Oc3ccc(Cl)c(Cl)c3)n2)CC1 : 202

stdin: Find the measured Ki of O=C(c1ccc(Oc2ccccc2F)nc1)N1CCN(C2CCCC2)CC1 and report it.
stdout: 24

stdin: Find the measured Ki of CC(C)N1CCCN(C(=O)c2ccc(Oc3ccc(Cl)c(Cl)c3)nc2)CC1 and report it.
stdout: 8

stdin: Find the measured Ki of O=C(c1ccc(Oc2ccccc2)nc1)N1CCCN(C2CCC2)CC1 and report it.
stdout: 2

stdin: Find the measured Ki of CC(C)N1CCN(C(=O)c2ccc(Oc3ccc(Cl)c(Cl)c3)nc2)CC1 and report it.
stdout: 29

stdin: Find the measured Ki of O=C(c1ccc(Oc2ccc(F)c(F)c2)nc1)N1CCCN(C2CCC2)CC1 and report it.
stdout: 1

stdin: Find the measured Ki of O=C(c1ccc(Oc2cccc(F)c2)cn1)N1CCCN(C2CCC2)CC1 [Example 71, trifluoroacetic acid salt] and report it.
stdout: 2
